Test system: L6 rat skeletal myoblasts
PROTOCOL: cytotoxicity against mammalian cells
Assay type: cell-based
REPORTED CONDITIONS: Rattus norvegicus, Myoblast, cytotoxicity, pure compound; read-out: IC50 L6
ATTRIBUTE MEASURED: log10(IC50) (log10 of the value in µM)
The common logarithm of IC50 in µM is what is listed.

Identify measured log10(IC50) associated with `CC1=CC(=O)c2c(O)cccc2C1=O`
0.46

Identify measured log10(IC50) associated with `CC(C)=CCC1=C(O)C(=O)c2ccccc2C1=O`
1.42

Identify measured log10(IC50) associated with `O=C1C=CC(=O)c2c(O)cccc21`
1.32

Identify measured log10(IC50) associated with `OC[C@H]1O[C@@H](Oc2ccc(O)c3cccc(O)c23)[C@H](O)[C@@H](O)[C@@H]1O`
2.09

Identify measured log10(IC50) associated with `O=C1C=CC(=O)c2ccccc21`
0.81

Identify measured log10(IC50) associated with `COc1cc([C@@H]2c3cc4c(cc3[C@H](O)[C@H]3COC(=O)[C@H]23)OCO4)cc(OC)c1OC`
-1.85

###

Task for the reader: assign each of the following compounds its reported pIC50.
Tested on: Trypanosoma brucei rhodesiense strain STIB 900 (bloodstream trypomastigotes)
PROTOCOL: microbe, parasite or virus in culture
Assay type: cell-based
REPORTED CONDITIONS: Trypanosoma brucei, read-out: IC50 TB
Convention used: pIC50 is expressed as -log10 of the molar concentration.

Look up and report pIC50, with Trypanosoma brucei rhodesiense strain STIB 900 (bloodstream trypomastigotes) as system, for `OC[C@H]1O[C@@H](Oc2ccc(O)c3cccc(O)c23)[C@H](O)[C@@H](O)[C@@H]1O`
5.21

Look up and report pIC50, with Trypanosoma brucei rhodesiense strain STIB 900 (bloodstream trypomastigotes) as system, for `O=C1C=CC(=O)c2c(O)cccc21`
5.79

###

Tested on: Leishmania donovani strain MHOM/ET/67/L82 (axenic amastigotes)
PROTOCOL: in vitro growth inhibition of L. donovani
Format: cell-based
REPORTED CONDITIONS: ratio of cytotoxic (L6) over antiparasitic IC50
Classify as follows. Reported SI LD greater than or equal to 3: Criterion met. Reported SI LD below: Criterion not met.

Record `OC[C@H]1O[C@@H](Oc2ccc(O)c3cccc(O)c23)[C@H](O)[C@@H](O)[C@@H]1O` ; criterion: SI LD no lower than 3. Met?
Criterion met

Record `CC1=CC(=O)c2c(O)cccc2C1=O` ; criterion: SI LD no lower than 3. Met?
Criterion met

Record `O=C1C=C(O)C(=O)c2ccccc21` ; criterion: SI LD no lower than 3. Met?
Criterion met

Record `CC(C)=CCC1=C(O)C(=O)c2ccccc2C1=O` ; criterion: SI LD no lower than 3. Met?
Criterion met

Record O=C1C(O)=C(C2=C(O)C(=O)c3ccccc3C2=O)C(=O)c2ccccc21 [2,2′-bis-(3-Hydroxy-1,4-naphthoquinone)] ; criterion: SI LD no lower than 3. Met?
Criterion met

Record `O=C1C=CC(=O)c2ccccc21` ; criterion: SI LD no lower than 3. Met?
Criterion not met

Record `CC(C)=CC[C@@H](O)C1=CC(=O)c2c(O)ccc(O)c2C1=O` ; criterion: SI LD no lower than 3. Met?
Criterion not met

###

Test system: Trypanosoma brucei rhodesiense strain STIB 900 (bloodstream trypomastigotes)
PROTOCOL: microbe, parasite or virus in culture
Format: cell-based
REPORTED CONDITIONS: ratio of cytotoxic (L6) over antiparasitic IC50
Task for the reader: assign each of the following molecules its reported SI TB.
Number only, please.

Identify measured SI TB associated with `O=C1C=C(O)C(=O)c2ccccc21`
0.2

Identify measured SI TB associated with `O=C1C=CC(=O)c2ccccc21`
11.1

Identify measured SI TB associated with `CC1=CC(=O)c2c(O)cccc2C1=O`
5.9

Identify measured SI TB associated with `CC(C)=CCC1=C(O)C(=O)c2ccccc2C1=O`
1.6

Identify measured SI TB associated with O=C1C(O)=C(C2=C(O)C(=O)c3ccccc3C2=O)C(=O)c2ccccc21 [2,2′-bis-(3-Hydroxy-1,4-naphthoquinone)]
0.9

Identify measured SI TB associated with `CC(C)=CC[C@@H](O)C1=CC(=O)c2c(O)ccc(O)c2C1=O`
2.1
